Below is a list of entries, each paired with its recorded Kd value.
# measurement_target: T1, EsCas13d, nuclease-dead (Eubacterium siraeum, UniProt B0MS50, R295A;H300A;R849A;H854A)
# T1 sequence: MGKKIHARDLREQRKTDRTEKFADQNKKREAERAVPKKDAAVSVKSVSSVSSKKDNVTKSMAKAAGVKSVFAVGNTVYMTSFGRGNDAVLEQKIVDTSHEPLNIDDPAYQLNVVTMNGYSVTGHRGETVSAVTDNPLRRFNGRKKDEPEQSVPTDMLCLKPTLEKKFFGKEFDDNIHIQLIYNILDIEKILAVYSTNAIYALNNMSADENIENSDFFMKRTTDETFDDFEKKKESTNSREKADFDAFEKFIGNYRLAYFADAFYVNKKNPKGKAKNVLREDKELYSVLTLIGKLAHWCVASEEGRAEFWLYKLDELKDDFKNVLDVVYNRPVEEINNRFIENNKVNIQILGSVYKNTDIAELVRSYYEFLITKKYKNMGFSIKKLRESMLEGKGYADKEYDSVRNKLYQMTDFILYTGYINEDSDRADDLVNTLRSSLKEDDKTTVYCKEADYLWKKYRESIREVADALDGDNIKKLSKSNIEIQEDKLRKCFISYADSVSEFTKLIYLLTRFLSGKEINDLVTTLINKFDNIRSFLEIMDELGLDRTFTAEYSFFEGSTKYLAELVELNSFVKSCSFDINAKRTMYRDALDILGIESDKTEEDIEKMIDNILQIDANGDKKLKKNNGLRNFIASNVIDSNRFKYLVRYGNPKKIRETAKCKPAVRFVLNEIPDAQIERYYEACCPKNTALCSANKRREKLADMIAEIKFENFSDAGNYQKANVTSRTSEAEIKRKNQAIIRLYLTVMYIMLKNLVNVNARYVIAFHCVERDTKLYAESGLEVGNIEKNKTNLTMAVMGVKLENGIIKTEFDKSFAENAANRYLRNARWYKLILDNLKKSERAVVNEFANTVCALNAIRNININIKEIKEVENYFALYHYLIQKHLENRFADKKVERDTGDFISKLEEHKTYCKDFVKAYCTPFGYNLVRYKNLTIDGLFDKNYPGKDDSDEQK
# test_description: crRNA (strand 1, pre-loaded); Mg2+; 40 mM Tris-HCl pH 7.5, 150 mM NaCl, 6 mM MgCl2, 1 mM DTT, 0.1% Tween-20, 0.2 mg/ml BSA; 25 C; 10 min per concentration, then washed
# conditions: tags: His6-TwinStrep-SUMO cleaved; N-terminal SNAP kept (SNAP-Surface 488); label: 3' end held by stalled T7 RNA polymerase
Provide the reading as a plain figure in nM.

binder	numeric_result
target 3 insG 3' of 7,insG 3' of 2 (mixed) RNA 1: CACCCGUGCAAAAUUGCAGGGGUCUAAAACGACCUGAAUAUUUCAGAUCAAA RNA 2: GGGAAUGGAUCCACAUCUACGAAUUCGUUUUUGAUCUGAAAUAUUGCAGGUGCUGCAGAUCGGAAGAGCACACGU	32.6

In the following, a different binder is considered.
Field request: Kd | item: target 1 insA 3' of 17,insC 3' of 12 (mixed) RNA 1: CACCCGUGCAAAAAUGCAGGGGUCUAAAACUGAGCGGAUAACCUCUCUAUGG RNA 2: GGGAAUGGAUCCACAUCUACGAAUUCGUACCAUAGAAGAGGCUUAUCCGCUCACCGAGAUCGGAAGAGCACACGU
23
